molecular target: JAK2 (Homo sapiens, UniProt O60674); assay: JAK2 inhibition assay (as Example 3 with JAK-2 enzyme); type: biochemical; details: enzyme inhibition, Table 5
Sequence (O60674 whole entry): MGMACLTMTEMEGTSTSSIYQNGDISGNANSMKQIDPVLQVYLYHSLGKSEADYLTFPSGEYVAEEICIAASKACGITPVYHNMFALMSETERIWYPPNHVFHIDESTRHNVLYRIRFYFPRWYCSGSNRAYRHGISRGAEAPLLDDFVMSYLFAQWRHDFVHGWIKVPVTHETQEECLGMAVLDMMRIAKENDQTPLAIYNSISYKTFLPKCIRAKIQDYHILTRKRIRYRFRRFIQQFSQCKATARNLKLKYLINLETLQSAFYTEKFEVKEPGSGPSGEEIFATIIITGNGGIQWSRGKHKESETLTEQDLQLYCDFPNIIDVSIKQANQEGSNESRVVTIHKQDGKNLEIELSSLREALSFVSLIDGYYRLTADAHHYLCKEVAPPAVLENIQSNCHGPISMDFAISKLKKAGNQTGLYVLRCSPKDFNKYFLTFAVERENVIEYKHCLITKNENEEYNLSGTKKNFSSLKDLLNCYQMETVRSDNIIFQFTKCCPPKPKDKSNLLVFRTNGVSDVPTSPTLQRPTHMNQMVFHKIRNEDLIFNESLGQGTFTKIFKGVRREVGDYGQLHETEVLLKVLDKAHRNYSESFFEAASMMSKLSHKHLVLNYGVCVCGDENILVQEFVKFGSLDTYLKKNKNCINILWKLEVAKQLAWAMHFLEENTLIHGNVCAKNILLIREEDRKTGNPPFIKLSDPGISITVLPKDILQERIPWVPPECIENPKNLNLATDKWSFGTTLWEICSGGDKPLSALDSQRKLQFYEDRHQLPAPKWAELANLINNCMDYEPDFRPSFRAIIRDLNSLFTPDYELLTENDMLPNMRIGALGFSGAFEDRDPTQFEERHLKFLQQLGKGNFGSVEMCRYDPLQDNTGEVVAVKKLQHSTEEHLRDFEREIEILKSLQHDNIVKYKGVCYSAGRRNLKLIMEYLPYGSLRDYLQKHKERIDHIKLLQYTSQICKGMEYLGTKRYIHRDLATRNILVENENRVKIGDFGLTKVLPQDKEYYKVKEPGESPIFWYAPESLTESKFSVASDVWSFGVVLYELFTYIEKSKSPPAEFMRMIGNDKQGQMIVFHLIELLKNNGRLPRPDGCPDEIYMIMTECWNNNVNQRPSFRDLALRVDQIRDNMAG
Readout Name: Ki

- Compound: "Fc1cccc(-c2c(Cl)cnc3[nH]ccc23)n1 [compound 48]"
  System Under Test: "JAK2 (Homo sapiens, UniProt O60674)"
  Readout Name: "Ki"
  Result: "< 500 nM"
- Compound: "CC(C)CNc1cccc(-c2c(Cl)cnc3[nH]ccc23)n1 [compound 78]"
  System Under Test: "JAK2 (Homo sapiens, UniProt O60674)"
  Readout Name: "Ki"
  Result: "500 to 5000 nM"
- Compound: "CC(=O)Nc1ccc(-c2ccnc3[nH]ccc23)cc1 [compound 43]"
  System Under Test: "JAK2 (Homo sapiens, UniProt O60674)"
  Readout Name: "Ki"
  Result: "< 500 nM"
- Compound: "c1cc(-c2ccnc3[nH]ccc23)[nH]n1 [compound 106]"
  System Under Test: "JAK2 (Homo sapiens, UniProt O60674)"
  Readout Name: "Ki"
  Result: "500 to 5000 nM"
- Compound: "Clc1cnc2[nH]ccc2c1-c1cccc(N2CCCC2)n1 [compound 79]"
  System Under Test: "JAK2 (Homo sapiens, UniProt O60674)"
  Readout Name: "Ki"
  Result: "500 to 5000 nM"
- Compound: "Clc1ccccc1CCNc1cccc(-c2c(Cl)cnc3[nH]ccc23)n1 [compound 75]"
  System Under Test: "JAK2 (Homo sapiens, UniProt O60674)"
  Readout Name: "Ki"
  Result: "500 to 5000 nM"
- Compound: "CC(C)(O)c1cccc(-c2ccnc3[nH]ccc23)n1 [compound 123]"
  System Under Test: "JAK2 (Homo sapiens, UniProt O60674)"
  Readout Name: "Ki"
  Result: "< 500 nM"
- Compound: "CCC(C)CNc1cccc(-c2ccnc3[nH]ccc23)n1 (stereo not drawn) [compound 72]"
  System Under Test: "JAK2 (Homo sapiens, UniProt O60674)"
  Readout Name: "Ki"
  Result: "< 500 nM"
- Compound: "Cc1ccc(-c2ccnc3[nH]ccc23)cc1C [compound 110]"
  System Under Test: "JAK2 (Homo sapiens, UniProt O60674)"
  Readout Name: "Ki"
  Result: "< 500 nM"
- Compound: "CN1CCCC1CCNc1cccc(-c2ccnc3[nH]ccc23)n1 (stereo not drawn) [compound 37]"
  System Under Test: "JAK2 (Homo sapiens, UniProt O60674)"
  Readout Name: "Ki"
  Result: "> 5000 nM"
- Compound: "Clc1cnc2[nH]ccc2c1-c1cccc(NC2CCCC2)n1 [compound 32]"
  System Under Test: "JAK2 (Homo sapiens, UniProt O60674)"
  Readout Name: "Ki"
  Result: "500 to 5000 nM"
- Compound: "CNC(=O)c1cccc(-c2ccnc3[nH]ccc23)c1 [compound 91]"
  System Under Test: "JAK2 (Homo sapiens, UniProt O60674)"
  Readout Name: "Ki"
  Result: "500 to 5000 nM"
- Compound: "CN(C)c1cccc(-c2ccnc3[nH]ccc23)c1 [compound 31]"
  System Under Test: "JAK2 (Homo sapiens, UniProt O60674)"
  Readout Name: "Ki"
  Result: "< 500 nM"
- Compound: "c1cc(-c2ccnc3[nH]ccc23)nc(N2CCc3ccccc3C2)c1 [compound 38]"
  System Under Test: "JAK2 (Homo sapiens, UniProt O60674)"
  Readout Name: "Ki"
  Result: "500 to 5000 nM"
- Compound: "Cc1cc(C)cc(-c2ccnc3[nH]ccc23)c1 [compound 112]"
  System Under Test: "JAK2 (Homo sapiens, UniProt O60674)"
  Readout Name: "Ki"
  Result: "< 500 nM"
- Compound: "COc1cc(-c2ccnc3[nH]ccc23)cc(OC)c1OC [compound 40]"
  System Under Test: "JAK2 (Homo sapiens, UniProt O60674)"
  Readout Name: "Ki"
  Result: "500 to 5000 nM"
- Compound: "CC(=O)Nc1cccc(-c2ccnc3[nH]ccc23)n1 [compound 98]"
  System Under Test: "JAK2 (Homo sapiens, UniProt O60674)"
  Readout Name: "Ki"
  Result: "< 500 nM"
- Compound: "CC(C)N(C)c1cccc(-c2ccnc3[nH]ccc23)n1 [compound 61]"
  System Under Test: "JAK2 (Homo sapiens, UniProt O60674)"
  Readout Name: "Ki"
  Result: "< 500 nM"
- Compound: "N#CCC(=O)N1CC=C(c2ccnc3[nH]ccc23)CC1 [compound 66]"
  System Under Test: "JAK2 (Homo sapiens, UniProt O60674)"
  Readout Name: "Ki"
  Result: "< 500 nM"
- Compound: "Fc1cccc(-c2ccnc3[nH]ccc23)n1 [compound 50]"
  System Under Test: "JAK2 (Homo sapiens, UniProt O60674)"
  Readout Name: "Ki"
  Result: "500 to 5000 nM"
- Compound: "CC(C)(CO)CNc1cccc(-c2ccnc3[nH]ccc23)n1 [compound 57]"
  System Under Test: "JAK2 (Homo sapiens, UniProt O60674)"
  Readout Name: "Ki"
  Result: "500 to 5000 nM"

###

# Lookup of reported Ki keyed by entry
molecular target: JAK2 (Homo sapiens); experiment: JAK2 inhibition assay (as Example 3 with JAK-2 enzyme); format: biochemical; details: enzyme inhibition, Table 5
Readout Name: Ki

- Molecule: "COc1cccc(CNc2cccc(-c3ccnc4[nH]ccc34)n2)c1 [compound 73]"
  System Under Test: "JAK2 (Homo sapiens)"
  Readout Name: "Ki"
  Result: "0.5 to 5 µM"
- Molecule: "c1ncc(-c2ccnc3[nH]ccc23)cn1 [compound 104]"
  System Under Test: "JAK2 (Homo sapiens)"
  Readout Name: "Ki"
  Result: "0.5 to 5 µM"
- Molecule: "Clc1cnc2[nH]ccc2c1C1=CCCCC1 [compound 29]"
  System Under Test: "JAK2 (Homo sapiens)"
  Readout Name: "Ki"
  Result: "< 0.5 µM"
- Molecule: "CC(C)Oc1ccc(-c2ccnc3[nH]ccc23)cc1 [compound 116]"
  System Under Test: "JAK2 (Homo sapiens)"
  Readout Name: "Ki"
  Result: "< 0.5 µM"
- Molecule: "Cc1cccnc1-c1ccnc2[nH]ccc12 [compound 74]"
  System Under Test: "JAK2 (Homo sapiens)"
  Readout Name: "Ki"
  Result: "> 5 µM"
- Molecule: "C=C(c1c(Cl)cnc2[nH]ccc12)C1CCCCC1 [compound 69]"
  System Under Test: "JAK2 (Homo sapiens)"
  Readout Name: "Ki"
  Result: "0.5 to 5 µM"
- Molecule: "CC(C)c1cccc(-c2ccnc3[nH]ccc23)c1 [compound 109]"
  System Under Test: "JAK2 (Homo sapiens)"
  Readout Name: "Ki"
  Result: "< 0.5 µM"
- Molecule: "c1cc(CN2CCOCC2)cc(-c2ccnc3[nH]ccc23)c1 [compound 88]"
  System Under Test: "JAK2 (Homo sapiens)"
  Readout Name: "Ki"
  Result: "0.5 to 5 µM"
- Molecule: "c1cc(NC2CCCC2)nc(-c2ccnc3[nH]ccc23)c1 [compound 24]"
  System Under Test: "JAK2 (Homo sapiens)"
  Readout Name: "Ki"
  Result: "0.5 to 5 µM"
- Molecule: "Clc1cnc2[nH]ccc2c1C1=CCCC1 [compound 28]"
  System Under Test: "JAK2 (Homo sapiens)"
  Readout Name: "Ki"
  Result: "< 0.5 µM"
- Molecule: "CC(C)CNc1cccc(-c2ccnc3[nH]ccc23)n1 [compound 20]"
  System Under Test: "JAK2 (Homo sapiens)"
  Readout Name: "Ki"
  Result: "0.5 to 5 µM"
- Molecule: "Clc1cnc2[nH]ccc2c1-c1cn[nH]c1 [compound 80]"
  System Under Test: "JAK2 (Homo sapiens)"
  Readout Name: "Ki"
  Result: "< 0.5 µM"
- Molecule: "Clc1ccc(-c2ccnc3[nH]ccc23)cc1Cl [compound 41]"
  System Under Test: "JAK2 (Homo sapiens)"
  Readout Name: "Ki"
  Result: "< 0.5 µM"
- Molecule: "Nc1ccccc1-c1ccnc2[nH]ccc12 [compound 119]"
  System Under Test: "JAK2 (Homo sapiens)"
  Readout Name: "Ki"
  Result: "> 5 µM"
- Molecule: "COC(=O)c1ccccc1-c1ccnc2[nH]ccc12 [compound 117]"
  System Under Test: "JAK2 (Homo sapiens)"
  Readout Name: "Ki"
  Result: "> 5 µM"
- Molecule: "N#Cc1ccc(-c2ccnc3[nH]ccc23)s1 [compound 108]"
  System Under Test: "JAK2 (Homo sapiens)"
  Readout Name: "Ki"
  Result: "< 0.5 µM"
- Molecule: "CC(=O)N1CC=C(c2ccnc3[nH]ccc23)CC1 [compound 64]"
  System Under Test: "JAK2 (Homo sapiens)"
  Readout Name: "Ki"
  Result: "0.5 to 5 µM"
- Molecule: "O=C(c1cccc(-c2ccnc3[nH]ccc23)c1)N1CCCCC1 [compound 93]"
  System Under Test: "JAK2 (Homo sapiens)"
  Readout Name: "Ki"
  Result: "> 5 µM"
- Molecule: "CC(C)c1cccc(-c2ccnc3[nH]ccc23)n1 [compound 97]"
  System Under Test: "JAK2 (Homo sapiens)"
  Readout Name: "Ki"
  Result: "< 0.5 µM"
- Molecule: "CN(Cc1cccnc1)c1cccc(-c2ccnc3[nH]ccc23)n1 [compound 56]"
  System Under Test: "JAK2 (Homo sapiens)"
  Readout Name: "Ki"
  Result: "< 0.5 µM"
- Molecule: "Clc1ccccc1CCNc1cccc(-c2ccnc3[nH]ccc23)n1 [compound 34]"
  System Under Test: "JAK2 (Homo sapiens)"
  Readout Name: "Ki"
  Result: "0.5 to 5 µM"
